These measurements were taken from ChEMBL document CHEMBL3856221.

Consider the following compounds and their measured pKi readings.
# tested-system: 5-hydroxytryptamine receptor 6 (Homo sapiens, UniProt P50406)
# Sequence (P50406 whole entry): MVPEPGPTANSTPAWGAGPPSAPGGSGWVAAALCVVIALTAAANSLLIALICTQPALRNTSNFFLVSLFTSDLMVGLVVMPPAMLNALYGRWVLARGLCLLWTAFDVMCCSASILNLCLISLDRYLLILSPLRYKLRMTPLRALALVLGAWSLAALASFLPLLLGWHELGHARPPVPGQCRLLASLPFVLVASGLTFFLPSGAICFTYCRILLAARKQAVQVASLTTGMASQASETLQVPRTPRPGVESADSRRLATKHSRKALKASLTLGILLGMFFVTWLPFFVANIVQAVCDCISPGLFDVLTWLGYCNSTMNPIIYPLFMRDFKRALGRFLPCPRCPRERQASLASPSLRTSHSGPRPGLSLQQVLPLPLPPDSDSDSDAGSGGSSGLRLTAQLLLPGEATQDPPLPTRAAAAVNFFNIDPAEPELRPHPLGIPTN
# experimental-details: Displacement of [3H]-LSD from human 5-HT6 receptor expressed in HEK293 cell membranes after 1 hr by microbeta counting analysis
pKi: −log10 of the molar value.
value-type: pKi

> print(dat)
                                 smiles.str  measured.value
1  COc1ccc(-c2ccccc2N2CCN(CCCCCC(=O)N[C@H](C)c3ccc(C#N)cc3)CC2)cc1            6.07
2  O=C(CCOCCN1CCN(c2cccnc2-c2ccccc2)CC1)NCc1ccc(C(F)(F)F)cc1            5.65
3  O=C(CCCCCN1CCN(c2ccccc2-c2ccccc2)CC1)NCc1ccc(OCCCN2CCOCC2)cc1            5.94
4  CN(C)Cc1ccc(CNC(=O)CCCCCN2CCN(c3ccccc3-c3ccccc3)CC2)cc1            5.82
5  COc1ccc(-c2cc(F)ccc2N2CCN(CCCCCC(=O)NCc3ccc(C#N)cc3)CC2)cc1            6.21
6  COc1ccc(-c2ccccc2N2CCN(CCCCCC(=O)NCc3ccc(C#N)cc3)CC2)cc1            6.13
7  O=C(CCOCCN1CCN(c2cccnc2-c2ccc(F)cc2)CC1)NCc1ccc(C(F)(F)F)cc1            5.58
8  O=C(CCCCCN1CCN(c2ccccc2-c2ccccc2)CC1)NCc1ccc(OCCN2CCOCC2)cc1            5.76

----------
# remaining at 0.5 h, 10 µM per entry
# experimental-details: Stability in mouse liver microsomes assessed as oxidative metabolism by measuring drug recovery at 10 uM preincubated for 10 mins followed by NADPH addition measured after 30 mins by liquid chromatographic method
# Assay type: ADME
# test-conditions: liver microsomes, read-out: Drug recovery
value-type: remaining at 0.5 h, 10 µM

> print(dat)
                                 smiles.str  measured.value
1  CS(=O)(=O)Oc1ccc(CNC(=O)CCCCCN2CCN(c3ccccc3-c3ccccc3)CC2)cc1            < 3%
2  COc1ccc(-c2ccccc2N2CCN(CCCCCC(=O)N[C@H](C)c3ccccc3)CC2)cc1       0.7 to 3%
3  N#Cc1ccc(CNC(=O)CCOCCN2CCN(c3ncccc3-c3ccccc3)CC2)cc1       1.6 to 3%
